Measured Kd by item
- measured target: T1, Fc fused human IL-18Rα (human, UniProt Q13478 19-329, limits assumed)
- T1 construct: also called IL-18Rα monomer; IL-18 receptor alpha; not shown: Fc part
- T1 sequence (looked up): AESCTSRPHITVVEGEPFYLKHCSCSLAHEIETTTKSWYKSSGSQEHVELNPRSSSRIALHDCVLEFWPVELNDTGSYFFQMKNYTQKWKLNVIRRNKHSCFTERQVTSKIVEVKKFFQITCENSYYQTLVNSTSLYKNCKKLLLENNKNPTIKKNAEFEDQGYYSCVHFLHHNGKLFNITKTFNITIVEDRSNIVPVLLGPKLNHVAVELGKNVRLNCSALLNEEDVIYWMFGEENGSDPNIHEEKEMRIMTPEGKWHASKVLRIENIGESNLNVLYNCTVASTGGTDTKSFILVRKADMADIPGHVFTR
- test method notes: SPR, Fc-IL-18Rα captured, 1:1 model
- Description: The interaction of the wild type and of modified IL-18 polypeptides with human IL-18 receptor subunits were measured with Surface Plasmon Resonance (SPR) technology. […] The kinetic binding of the IL-18 analytes were measured with a Biacore 8K instrument in two-fold serial dilutions starting at 1 μM down to 0.98 nM. […]
Kindly answer with a numeric value in nM, unit omitted.

Modified IL-18 polypeptide of SEQ ID NO: 71 with a 30 kDa PEG attached at residue C68 (E6K, C38S, K53A, C68-30kDPEG) (ligand, 30 kDa PEG on Cys 68 (30 kDa DBCO-polyethylene glycol clicked to a bromoacetamido-PEG5-azide linker on the cysteine), also called 71 + PEG) YFGKLKSKLSVIRNLNDQVLFIDQGNRPLFEDMTDSDSRDNAPRTIFIISMYADSQPRGMAVTISVKCEKISTLSCENKIISFKEMNPPDNIKDTKSDIIFFQRSVPGHDNKMQFESSSYEGYFLACEKERDLFKLILKKEDELGDRSIMFTVQNED
682

Query: Any idea what its Kd is? The binder is Modified IL-18 polypeptide of SEQ ID NO: 22 (E06K, K53A, C38S, C68S, C76S, C127S, K70C) (ligand) YFGKLKSKLSVIRNLNDQVLFIDQGNRPLFEDMTDSDSRDNAPRTIFIISMYADSQPRGMAVTISVKSECISTLSSENKIISFKEMNPPDNIKDTKSDIIFFQRSVPGHDNKMQFESSSYEGYFLASEKERDLFKLILKKEDELGDRSIMFTVQNED
Result: 2210
